Entry source: patent US20190300618A1

Hi there, I'd appreciate the recorded EC50 above that of 131AVH6VL6-hIgG1 for every entry that follows.
molecular target: T1, human CD27 (wild type), expressed on cells (human, UniProt P26842 21-260); assay: flow cytometry on primary T cells
T1 construct: on transfected CHO-K1 / CHOK1 cells, transfected HEK293FT reporter cells or primary human T cells; also called hCD27; HsCD27

Data request, read-out EC50 above that of 131AVH6VL6-hIgG1, for Humanized CD27 131A VH6/VL7-hIgG1 (antibody, V domains shown, human IgG1 constant region; also called hCD27.131A VH6VL7 hulgG1) VH: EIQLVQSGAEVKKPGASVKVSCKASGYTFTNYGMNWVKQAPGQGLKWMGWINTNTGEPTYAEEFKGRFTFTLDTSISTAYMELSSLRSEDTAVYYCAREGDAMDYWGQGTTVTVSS VL: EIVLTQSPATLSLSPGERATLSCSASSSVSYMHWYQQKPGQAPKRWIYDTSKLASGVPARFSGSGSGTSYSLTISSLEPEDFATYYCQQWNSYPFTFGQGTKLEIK ≤ 10%

Proceed to Humanized CD27 131A VH8/VL6-hIgG1 (antibody, V domains shown, human IgG1 constant region; also called hCD27.131A VH8VL6 hulgG1) VH: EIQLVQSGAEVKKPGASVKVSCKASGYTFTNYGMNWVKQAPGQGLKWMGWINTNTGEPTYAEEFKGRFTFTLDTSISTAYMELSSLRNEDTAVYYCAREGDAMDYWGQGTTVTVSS VL: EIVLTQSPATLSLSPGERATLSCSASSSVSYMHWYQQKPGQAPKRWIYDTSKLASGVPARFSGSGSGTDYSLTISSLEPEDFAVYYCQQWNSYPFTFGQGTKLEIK ≤ 10%
